The measured values listed here are drawn from PubChem BioAssay (EPA / NIEHS).

method.description: CCTE_Shafer_MEA_acute_cross_correlation_area: CCTE's Neural Acute Assay for Area of Cross Correlation, Shafer Lab (AID 2284024);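 note: area under pooled inter-electrode spike cross-correlation near zero lag as percent change from own baseline; curves fitted for loss of cross-correlation area so actives lower synchrony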
Activity calls are given as the source filed them. Rule for the calls: active = hit-call score of the fitted dose curve at least 0.9, where 1 is the maximum; inactive = score below 0.9. Peptide text beside a SMILES is read from it.
Outcomes: active, inactive

molecule	category
C1CNCCN1	inactive
CC(CCC(=O)O)(c1ccc(O)cc1)c1ccc(O)cc1	inactive
COC(=O)[C@H](Cc1ccccc1)NC(=O)[C@@H](N)CC(=O)O (H-Asp-Phe-OMe)	inactive
CC(C)C(=O)OCCc1ccccc1	inactive
CC1(C)CC(O)CC(C)(C)N1[O]	inactive
c1ccc(Nc2cccc3ccccc23)cc1	active

###

method.description: ATG_TGFb_CIS: Attagene CIS-FACTORIAL HepG2 Assay for human Transforming Growth Factor (TGF) (AID 2282967)
test.context: HepG2 Attagene CIS TGFb reporter, mRNA transcription; actives raise or lower the signal
The source made the active and inactive calls. Rule for the calls: active = hit-call score of the fitted dose curve at least 0.9, where 1 is the maximum; inactive = score below 0.9.
Possible outcomes: True = active, False = inactive

molecule	category
O=C(C=Cc1ccccc1)OCCc1ccccc1	False
CCCCCCOC(=O)CCCCC(=O)OCCCCCC	False
CC(C)CO	True
O=C(O)CC(C(=O)O)S(=O)(=O)O (stereo not given)	False
CCOC(=O)/C=C\C(=O)OCC	False
Nc1cccc(N)n1	False
Cn1ccnc1	False
CC(C)c1ccc(O)c(C(C)C)c1	False
CC(=O)/C=C/C1C(C)=CCCC1(C)C (stereo not given)	False
CCCCCCCCCC(C)=O	False
CCCCCCCCCCCCc1ccc(O)cc1	False
C=CC(=O)NC(C)(C)C	False
c1ccc2c(c1)[nH]c1ccccc12	False
CC(C)(C)NC(=O)[C@H]1CC[C@H]2[C@@H]3CC[C@H]4NC(=O)C=C[C@]4(C)[C@H]3CC[C@]12C	False
CC(C)CC(=O)OCc1ccccc1	False

###

method.description: BSK_LPS_PGE2: BioMAP Diversity Plus: LPS Assay for Prostaglandin E2 (PGE2) Biomarker Activity (AID 2283082)
test.context: primary human HUVEC with PBMC; actives raise or lower the signal
Active and inactive are the calls of the source. Rule for the calls: active = hit-call score of the fitted dose curve at least 0.9, where 1 is the maximum; inactive = score below 0.9.
Classes used: active, inactive

substance.smiles	category
CCCCCC1=CCCC1=O	inactive
CCN1CN(CC)CN(CC)C1	inactive
Nc1cccc(N)n1	inactive
O=C(Cl)c1c(Cl)c(Cl)c(C(=O)Cl)c(Cl)c1Cl	inactive
O=C(Oc1ccccc1)c1ccccc1C(=O)Oc1ccccc1	inactive
CC/C=C\C/C=C\C/C=C\CCCCCCCC(=O)OC	active
Nc1ccc(C(=O)O)cc1	inactive
CC/C=C\CCOC(=O)c1ccccc1O	inactive

###

method.description: ATG_GATA_CIS: Attagene CIS-FACTORIAL HepG2 Assay for human GATA Binding Protein (AID 2282944)
test.context: HepG2 GATA cis-element reporter, Attagene multiplex mRNA; actives raise or lower the signal
The source made the active and inactive calls. The calls were made as follows: active = hit-call score of the fitted dose curve at least 0.9, where 1 is the maximum; inactive = score below 0.9.
Outcomes: true for active, false for inactive

compound	category
CCOC(=O)CC(=O)c1ccccc1	false
CCC(C)(O)CCCC(C)C (configuration not stated)	false
C=C(C)OC(C)=O	false
CCCCNS(=O)(=O)c1ccc(C)cc1	false
C=CCCCCCCCCC=O	false
CC(C)CCOCc1ccccc1	false
CCc1cccc(C)c1N(C(=O)CS(=O)(=O)O)C(C)COC (configuration not stated)	false
CC1=C(O)C(=O)C(C)O1 (configuration not stated)	false
c1ccc(Nc2cccc3ccccc23)cc1	false
CC(C)OC(=O)c1ccccc1	false
CC(C)(CO)COC(=O)C(C)(C)CO	false
C[Si](C)(C)N[Si](C)(C)C	false
O=C(O)C1CCC(C(=O)O)CC1 (configuration not stated)	false
O=C(O)c1cc(O)c2ccccc2c1O	false
Cc1ccccc1CCO	false
CCCCC(=O)O	false
CC(C)(O)Cc1ccccc1	false
CCCCC(CC)COC(=O)/C=C/c1ccc(OC)cc1 (configuration not stated)	false
CCCCCCCCCCCC(=O)OCC	false
O=C1CCCCCCCCCCCN1	false
c1ccc2c(c1)[nH]c1ccccc12	false
CC1=CCC2CC1C2(C)C (configuration not stated)	false
COc1cc(O)c(C(=O)c2ccccc2)cc1S(=O)(=O)O	false
C=C(C)C(=O)OCCOC(=O)C(=C)C	false
Oc1ccccc1Cc1ccccc1O	false
CC1(C)CC(O)CC(C)(C)N1[O]	false
CCCC(C)C(=O)OCC (configuration not stated)	false
CCCCOCCOC(=O)COc1ccc(Cl)cc1Cl	false
CCCCCC[C@@H](O)C/C=C\CCCCCCCC(=O)OCC(O)CO (some centres not stated)	true
CCCCOC(=O)CCC(C)=O	false
C=C(C)[C@@H]1CC=C(C)CC1	false
Nc1ccc(Cl)c(N)c1	false

###

Read-out: Intercellular Adhesion Molecule 1 (ICAM1), ICAM1 (gene 3383)
method.description: BSK_3C_ICAM1: BioMAP Diversity Plus: 3C Assay for Intercellular Adhesion Molecule 1 (ICAM1) Biomarker Activity (AID 2283003)
test.context: primary human endothelial cells (HUVEC); actives raise or lower the signal
Activity calls are given as the source filed them. How the source made its calls: active means hit-call score of the fitted dose curve at least 0.9, where 1 is the maximum; inactive means score below 0.9.
Labels: active, inactive

substance.smiles	category
c1ccc2sc(SSN3CCOCC3)nc2c1	active
Oc1ccccc1Cc1ccccc1O	inactive
Clc1cc(Cl)c(Cl)c(Cl)c1Cl	inactive
CC1=CC=C(C(C)C)CC1	inactive
c1ccc2c(c1)[nH]c1ccccc12	inactive
C=C(C)C(=O)OCCCCCCCCCCCC	inactive
C=CC(=O)NC(C)(C)C	inactive
CCCCCCCCCCCC(=O)N(C)CC(=O)O	inactive

###

method.description: ATG_CRE_CIS: Attagene CIS-FACTORIAL HepG2 Assay for human cAMP Responsive Element (CRE) binding protein 3 (AID 2282926)
test.context: HepG2 CRE cis-reporter, Attagene multiplexed mRNA; actives raise or lower the signal
Activity calls are given as the source filed them. Rule for the calls: active = hit-call score of the fitted dose curve at least 0.9, where 1 is the maximum; inactive = score below 0.9.
Classes used: active, inactive

molecule	category
COC(OC)(C(=O)c1ccccc1)c1ccccc1	inactive
Nc1ncnc2nc[nH]c12	inactive
CCCCOCC(C)O (centres undefined)	inactive
Oc1ccccc1Cc1ccccc1O	inactive
CC1(C)CC(O)CC(C)(C)N1[O]	inactive
O=S(=O)(O)c1ccc(N=Nc2c(O)ccc3ccccc23)cc1	inactive
C=C(C)C(=O)OCCOC(=O)C(=C)C	inactive
O=C(C=Cc1ccccc1)OCCc1ccccc1	inactive
Cn1cccc1	inactive
CC=C(C)C(C)=O	inactive
O=C(Oc1ccccc1)c1ccccc1C(=O)Oc1ccccc1	inactive
Cc1cc(C)n(CO)n1	inactive
COC(C=C(C)CCC=C(C)C)OC	inactive
CCC1(C)C(=O)N(Cl)C(=O)N1Cl (centres undefined)	active
CCOC(=O)OC(=O)OCC	inactive
CN(C)Cc1cc(CN(C)C)c(O)c(CN(C)C)c1	inactive
C[Si]1(C)O[Si](C)(C)O[Si](C)(C)O[Si](C)(C)O[Si](C)(C)O1	inactive
CC(Cl)COP(=O)(OCC(C)Cl)OCC(C)Cl (centres undefined)	inactive
CCN1CN(CC)CN(CC)C1	active
CC(C)c1ccc2ncccc2c1	inactive
CC1=C(O)C(=O)C(C)O1 (centres undefined)	inactive
CCC(C)N (centres undefined)	inactive
O=C(O)CCC(=O)O	inactive
C1CCSC1	inactive
C=CCCCCCCCCOC(C)=O	inactive
CC1CCC(C(C)(C)S)C(=O)C1 (centres undefined)	inactive
CC(=O)c1ccc(S(=O)(=O)NC(=O)NC2CCCCC2)cc1	inactive
CC(=O)CCC=C(C)C	inactive
O=C(Nc1ccccc1)c1cc(Cl)ccc1O	active
C=CCCCCCCCCC=O	inactive
CCOC(=O)/C=C\C(=O)OCC	inactive
C=CC(=O)O[C@H]1C[C@@H]2CC[C@@]1(C)C2(C)C	active
CCCSSCCC	inactive
CCC(C)c1ccccc1 (centres undefined)	inactive
CCNc1nc(NC(C)(C)C)nc(OC)n1	inactive
Cc1c(C(=O)c2c[nH]n(C)c2=O)ccc(S(C)(=O)=O)c1C1=NOCC1	inactive
O=C(Cl)c1ccc(C(=O)Cl)cc1	inactive
CCCCCCCCC(CO)CCCCCC (centres undefined)	active
CC(=O)OC1CCCCC1C(C)(C)C (centres undefined)	inactive
Nc1ccc(C(=O)O)cc1	inactive
Cc1cc(=O)[nH]c(=O)[nH]1	inactive
CC(C)CC(=O)OCc1ccccc1	inactive
CCCCCC[C@@H](O)C/C=C\CCCCCCCC(=O)OCC(O)CO (some centres undefined)	inactive
[Cl][Eu]([Cl])[Cl]	inactive
CCCCCCCOC(=O)c1ccc(O)cc1	inactive
CCCCCCCCCCCCc1ccc(O)cc1	inactive
Cc1c[nH]c(=O)[nH]c1=O	inactive
Clc1cccnc1	inactive
CCCCCCCCCCCCCc1ccccc1	inactive
CCCCCCCCCCCCCCCCCCOS(=O)(=O)O	inactive
C=C[Si](OCCOC)(OCCOC)OCCOC	inactive
O=C(O)CCCC(=O)O	inactive
O=C1CCCCCCCCCCC1	inactive
[Cl][Sc]([Cl])[Cl]	inactive
CC(=O)OCC=C(C)C	inactive
CC(C)(CO)COC(=O)C(C)(C)CO	inactive
OCCCc1ccccc1	inactive
CCCCCCCCCCCCCC(=O)OC(C)C	inactive
CC1=CCC(C(C)C)C=C1 (centres undefined)	inactive
CC(=O)OC/C=C(/C)CCC=C(C)C	inactive
Nc1nc(N)nc(-c2ccccc2)n1	inactive
CCC(C)(O)CCCC(C)C (centres undefined)	inactive
CCC1COC(=O)O1 (centres undefined)	inactive
C=CC(=O)NCOCCCC	inactive
